# assayTarget: T1, Peptide E (mouse PAR-2), N-terminal biotinylated (Mouse (Mus musculus), N-terminal biotin via G4S linker)
# T1 construct: also called Peptide E N-Term
# T1 peptide: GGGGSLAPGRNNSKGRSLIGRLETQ
# assayProcedure: peptide ELISA titration
reportedMetric: EC50 (nM)
A number alone suffices; assume nM.

Need EC50 of H4H581P (antibody, human IgG4, V domains shown, also called mAb H4H581P; H1H581P variable regions) VH: QVQLVESGGGVVQPGRSLRLSCVASGFTFSRYGIHWVRQAPGKGLEWVIVISYDGINKYYADSVKGRFTISRDNSKNTVYLQMNSLRAEDTAVYYCAKGDFWSGYFDYWGQGTLVTVSS VL: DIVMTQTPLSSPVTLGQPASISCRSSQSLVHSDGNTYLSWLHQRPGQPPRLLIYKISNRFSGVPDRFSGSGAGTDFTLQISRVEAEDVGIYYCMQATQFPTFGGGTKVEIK , thanks.
0.032

Need EC50 of H4H583P (antibody, human IgG4, V domains shown, also called H1H583P variable regions) VH: QVQLVESGGGVVQPGMSLRLSCTASGFTFRRYGMHWVRQAPGKGLEWVAVIWYDGSNKYYADSVKGRFTITRDNSKNTLYLQMNSLRAEDTAIYFCASEITIGDWFDPRGQGTLVTVSS VL: AIQMTQSPSSLSASVGDRVTITCRASQGIRNDLGWFQQKPGKVPKLLIYAASTLHSGVPSRFSGSGFGTDFTLTISSLQPEDFATYYCLQDFNYPLTFGGGTKVEIK , thanks.
0.014

Need EC50 of H4H579P (antibody, human IgG4, V domains shown, also called H1H579P variable regions) VH: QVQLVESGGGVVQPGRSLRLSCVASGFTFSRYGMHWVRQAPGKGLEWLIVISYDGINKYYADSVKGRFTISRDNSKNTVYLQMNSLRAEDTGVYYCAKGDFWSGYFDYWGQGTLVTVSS VL: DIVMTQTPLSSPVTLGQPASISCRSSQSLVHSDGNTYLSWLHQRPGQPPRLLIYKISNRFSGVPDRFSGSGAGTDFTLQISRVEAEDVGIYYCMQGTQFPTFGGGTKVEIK , thanks.
0.54

Need EC50 of H4H578P (antibody, human IgG4, V domains shown, also called H1H578P variable regions) VH: QVQLVESGGGVVQPGMSLRLSCAASGFTFRRYGMHWVRQAPGKGLEWVAVIWYDGSNKYYVDSVKGRFTISRDNSKNTLYLQMNSLRAEDTAVYYCASEITVGDWFDPWGQGTLVTVSS VL: AIQMTQSPSSLSASVGDRVTITCRASQGIRNDLGWYQQKPGKAPKLLIYAASSLHSGVPSRFSGSGSGTDFTLTISSLQPEDFATYYCLQDFNYPLTFGGGTKVEIK , thanks.
0.09

Need EC50 of H4H585P (antibody, human IgG4, V domains shown, also called H1H585P variable regions) VH: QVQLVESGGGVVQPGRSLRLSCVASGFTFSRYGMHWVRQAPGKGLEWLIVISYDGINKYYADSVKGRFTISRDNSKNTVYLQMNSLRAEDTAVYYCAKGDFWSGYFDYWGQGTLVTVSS VL: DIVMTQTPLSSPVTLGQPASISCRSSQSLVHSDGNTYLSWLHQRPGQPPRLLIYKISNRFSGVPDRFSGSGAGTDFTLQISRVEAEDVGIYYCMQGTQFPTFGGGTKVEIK , thanks.
0.189

Need EC50 of H4H584P (antibody, human IgG4, V domains shown, also called H1H584P variable regions) VH: QVQLVESGGGVVQPGRSLRLSCVASGFTFSRYGMHWVRQAPGKGLEWVVVISYDGINKYYADSVKGRFTISRDNSKNTVYLQMNSLRAEDTAVYYCAKGDFWSGYFDYWGQGTLVTVSS VL: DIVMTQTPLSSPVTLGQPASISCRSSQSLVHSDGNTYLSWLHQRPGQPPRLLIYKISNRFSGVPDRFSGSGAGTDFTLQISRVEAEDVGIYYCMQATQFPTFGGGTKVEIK , thanks.
0.511

Need EC50 of H4H580P (antibody, human IgG4, V domains shown, also called H1H580P variable regions) VH: QVQLVESGGGVVQPGRSLRLSCVASGFTFSRYGMHWVRQAPGKGLEWVVVISYDGINKYYADSVKGRFTISRDNSKNTVYLQMNSLRAEDTAVYHCAKGDFWSGYFDYWGQGTLVTVSS VL: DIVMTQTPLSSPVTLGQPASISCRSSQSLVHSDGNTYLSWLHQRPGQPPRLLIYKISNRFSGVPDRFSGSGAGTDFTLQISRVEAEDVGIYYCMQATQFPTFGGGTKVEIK , thanks.
0.932
